# tested_target: IDO1 (Homo sapiens)
# Sequence (P14902 whole entry): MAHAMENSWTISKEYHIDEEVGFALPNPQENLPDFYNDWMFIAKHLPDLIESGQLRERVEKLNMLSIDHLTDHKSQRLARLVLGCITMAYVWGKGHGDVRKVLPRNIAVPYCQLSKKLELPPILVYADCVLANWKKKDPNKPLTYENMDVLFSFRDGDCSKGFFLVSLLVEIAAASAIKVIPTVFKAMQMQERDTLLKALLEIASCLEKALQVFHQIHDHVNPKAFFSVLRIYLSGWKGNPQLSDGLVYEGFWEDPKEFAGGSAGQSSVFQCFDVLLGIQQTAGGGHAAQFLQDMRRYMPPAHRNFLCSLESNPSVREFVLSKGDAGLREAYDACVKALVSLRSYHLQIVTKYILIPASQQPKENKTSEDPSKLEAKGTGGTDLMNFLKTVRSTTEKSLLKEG
# assay: IDO1 Cellular Assay in HeLa Cells Stimulated with IFNγ
# Format: cell-based
# experimental_parameters: about 48 hours, read-out: Hela IC50
# Description: Biological Assays IDO1 Cellular Assay in HeLa Cells Stimulated with IFNγ HeLa cells were cultured in complete HeLa culture medium (90% EMEM, 10% heat-inactivated fetal bovine serum) and expanded to about 1×10^9 cells. […] Frozen HeLa cells were thawed and transferred into HeLa assay medium (99% complete HeLa culture medium, 1% Pen/Strep) with 20 mL medium/vial of cells. […] The cells were then counted and adjusted to a density of 2×10^5 cells/mL in HeLa assay medium. […]
pIC50: −log10 of the molar value.
Kind request: treat 8 as inclusive, so pIC50 at 8 or higher is y, anything lower is n.

Qu. Entry O=C(C1CCOCC1)N1CCCc2nc(C3(C(=O)Nc4ccc(F)cc4)CCC3)ccc21 : is its pIC50 no less than 8?
Ans. y

Qu. Could you please find out whether CC(C(=O)Nc1ccc(F)cc1)c1ccc2c(n1)CCCN2C(=O)C1CCCCO1 (single isomer, unassigned) [Example 161] has pIC50 that meets 8 or exceeds it?
Ans. y

Qu. Given C[C@H](C(=O)Nc1ccc(F)cc1)c1ccc2c(c1)CCCN2C(=O)C1CN(C)CCO1 (stereo partly shown) , state whether its pIC50 is at least 8.
Ans. n

Qu. Hello, I need to know if O=C(Nc1ccc(F)cc1)C(c1ccc2c(n1)CCCN2C(=O)C1CC1)C1CC1 (single isomer, unassigned) [Example 261] has measured pIC50 not below 8. Thanks!
Ans. n

Qu. Assess whether reported pIC50 for CC(C)CC(=O)N1CCCc2cc([C@@H](C)NC(=O)c3ccc(Cl)cc3)ccc21 (racemic) sits at 8 or higher.
Ans. y

Qu. Item C[C@@H](C(=O)Nc1ccc(F)cc1)c1ccc2c(c1)CCCN2C(=O)c1cccc(Cl)c1 (single isomer, unassigned) with pIC50 of 8 or above?
Ans. y

Qu. Is pIC50 for CC(NC(=O)c1ccc(F)cc1)c1ccc2c(n1)C(O)CCN2C(=O)C1CC1 (single isomer, unassigned) [Example 197] at or above 8?
Ans. n
